kon values for the binders below.
SYSTEM_TESTED: T1, recombinant human CD63 extracellular loop 2 expressed with a C-terminal human Fc tag (human)
T1 construct: also called hCD63 EC loop 2-hFc; human CD63 EC loop 2-Fc
PROCEDURE_DETAILS: SPR Biacore, mAb captured, 25C
Report the figure in M⁻¹ s⁻¹ without appending any unit label.

{"BINDER": "H2M12395N (antibody, V domains shown, also called H2aM12395N) VH: QVQLQESGPRLVKPSETLSLTCIVSGGSISNFYWNWIRQSPGKGLEWIGYFFYTGTIDYNPSLKSRVTISLDTSKNQFSLNLRLLTAADAAVYYCARMGLGANAFDIWGHGTMVTVSS VL: EIVLTQSPGTLSLSPGERATLSCRASQHVSSNYLAWYQQKPGQAPRLLIYGGSSRATGIPDRFSGSGSGTDFTLTISRLEPADFAVFYCQQYGNSPWTFGQGTKVEMK", "kon (M⁻¹ s⁻¹)": 677000}

Q. Specify reported kon for the binder shown: H2M12450N (antibody, V domains shown, also called H2aM12450N; mAb12450) VH: QVQLQESGPKVVKPSETLSLTCTVSGGSISSYYWNWIRQSPGKGLEWIGYTKRGYTDYNPSLRSRVTISEDTSKNQFSLRISSVTAADTAVYYCAQMGWGSHAFDMWGQGTMVAVSS VL: EIVLTQSPGTLSLSPGERATLSCRASQSVNSRYLAWYQQKPGQAPRLLIYGASSRATGIPDRCSGSGSGTDFTLTISRLEPEDFAVYYCQQYGSSPWTFGQGTKVEIK
A. 320000
